From: ChEMBL document CHEMBL5143691

Target: Parathyroid hormone/parathyroid hormone-related peptide receptor (Homo sapiens)
Sequence (Q03431 whole entry): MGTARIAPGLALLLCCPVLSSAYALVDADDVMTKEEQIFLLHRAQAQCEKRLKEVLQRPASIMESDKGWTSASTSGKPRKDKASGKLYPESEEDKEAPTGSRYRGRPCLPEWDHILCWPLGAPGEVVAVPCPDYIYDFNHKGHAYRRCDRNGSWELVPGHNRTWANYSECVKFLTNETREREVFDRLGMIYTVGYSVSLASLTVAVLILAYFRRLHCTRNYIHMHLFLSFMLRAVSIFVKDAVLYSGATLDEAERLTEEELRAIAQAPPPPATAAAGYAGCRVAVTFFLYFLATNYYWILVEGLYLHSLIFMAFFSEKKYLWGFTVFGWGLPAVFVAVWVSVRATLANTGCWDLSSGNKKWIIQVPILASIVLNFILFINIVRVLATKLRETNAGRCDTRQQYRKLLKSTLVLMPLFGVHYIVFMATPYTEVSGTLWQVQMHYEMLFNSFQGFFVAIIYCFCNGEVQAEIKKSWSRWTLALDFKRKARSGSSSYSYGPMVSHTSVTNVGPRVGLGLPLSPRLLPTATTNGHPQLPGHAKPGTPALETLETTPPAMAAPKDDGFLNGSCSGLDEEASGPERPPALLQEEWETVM
Experiment: Antagonist activity against human PTHR1 expressed in CHO-K1 cells assessed as reduction in PTH induced cAMP level incubated for 30 mins in presence of IBMX by cAMP assay
readoutType: IC50 (nM)

a = COC(=O)C1(CNC2CCOCC2)CN(c2ccc(N3C(=O)C(C)(C)c4ncc(Cl)cc4-c4ccc(Cl)cc43)cc2)C1
b = CC1(C)C(=O)N(c2ccc(N3CC(CNC4CCOCC4)(C(=O)O)C3)cc2)c2cc(Cl)ccc2-c2cc(Cl)cnc21
Q: // pick larger IC50 from pair: a vs b Field: selected label. Fill in the label of the entry you choose.
Result: b

====

assay: Metabolic stability in rat liver microsomes assessed as compound remaining at 1 uM incubated for 30 mins in presence of NADPH by LC-MS/MS analysis
readoutType: remaining at 0.5 h, 1 µM (%)

smi=CC1(C)C(=O)N(c2ccc(N3CC(CNC4CCOCC4)(C(=O)O)C3)cc2)c2cc(Cl)ccc2-c2cc(Cl)cnc21 unitabbrev=% measuredvalue=93

I = COC1(CN(C)C2CCOCC2)CN(c2ccc(N3C(=O)C(C)(C)c4ncc(Cl)cc4-c4ccc(Cl)cc43)cc2)C1
II = CC1(C)C(=O)N(c2ccc(N3CC(F)(CNC45CCC(C(=O)O)(CC4)CC5)C3)cc2)c2cc(Cl)ccc2-c2cc(Cl)cnc21
Q: // pick larger remaining at 0.5 h, 1 µM from pair: I vs II Field: selected label. Fill in the label of the entry you choose.
Result: II

a = COC(=O)C1(CNC2CCOCC2)CN(c2ccc(N3C(=O)C(C)(C)c4ncc(Cl)cc4-c4ccc(Cl)cc43)cc2)C1
b = CC1(C)C(=O)N(c2ccc(N3CC(O)(CNC4CCOCC4)C3)cc2)c2cc(Cl)ccc2-c2cc(Cl)cnc21
Q: // pick larger remaining at 0.5 h, 1 µM from pair: a vs b Field: selected label. Fill in the label of the entry you choose.
Result: b
(b: 82%, a: 23%)

====

assay: in vivo; conditions: Sprague-Dawley, rat, po, 5 mg/kg
readoutType: Cmax (ng/mL)
Note: unit ng/mL is implicit; provide only the numeric part.

Q: What value of measured Cmax is listed for CC1(C)C(=O)N(c2ccc(N3CC(F)(CNC45CCC(C(=O)O)(CC4)CC5)C3)cc2)c2cc(Cl)ccc2-c2cc(Cl)cnc21 ?
Result: 900

====

molecular target: UniProtKB P10632; assay: Inhibition of CYP2C8 (unknown origin) at 10 uM relative to control; assay type: ADME
Sequence (P10632 whole entry): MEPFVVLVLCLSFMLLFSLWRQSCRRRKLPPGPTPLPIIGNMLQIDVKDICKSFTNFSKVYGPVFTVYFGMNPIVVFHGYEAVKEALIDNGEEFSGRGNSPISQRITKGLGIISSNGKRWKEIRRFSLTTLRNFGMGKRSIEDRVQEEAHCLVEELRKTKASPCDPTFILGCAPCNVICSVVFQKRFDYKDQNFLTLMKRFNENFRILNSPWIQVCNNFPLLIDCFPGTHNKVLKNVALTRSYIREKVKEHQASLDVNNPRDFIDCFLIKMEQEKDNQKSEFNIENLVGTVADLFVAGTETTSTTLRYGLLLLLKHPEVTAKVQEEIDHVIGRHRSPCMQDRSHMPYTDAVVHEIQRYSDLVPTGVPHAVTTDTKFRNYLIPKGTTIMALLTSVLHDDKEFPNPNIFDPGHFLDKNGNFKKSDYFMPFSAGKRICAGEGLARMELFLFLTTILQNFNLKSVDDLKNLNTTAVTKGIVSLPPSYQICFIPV
readoutType: inhibition at 10 µM

Q: What value of measured inhibition at 10 µM is listed for CC1(C)C(=O)N(c2ccc(N3CC(F)(CN[C@H]4CC[C@H](C(=O)O)CC4)C3)cc2)c2cc(Cl)ccc2-c2cc(Cl)cnc21 ?
Result: < 50%

====

biological target: hERG (KCNH2) (Homo sapiens); test: Inhibition of human ERG potassium channel expressed in CHO-K1 cells at 3 uM incubated for 5 mins by patch clamp assay; type: toxicity, cell-based; conditions: CHO-K1 cells expressing human ERG potassium channel
Sequence (Q12809 whole entry): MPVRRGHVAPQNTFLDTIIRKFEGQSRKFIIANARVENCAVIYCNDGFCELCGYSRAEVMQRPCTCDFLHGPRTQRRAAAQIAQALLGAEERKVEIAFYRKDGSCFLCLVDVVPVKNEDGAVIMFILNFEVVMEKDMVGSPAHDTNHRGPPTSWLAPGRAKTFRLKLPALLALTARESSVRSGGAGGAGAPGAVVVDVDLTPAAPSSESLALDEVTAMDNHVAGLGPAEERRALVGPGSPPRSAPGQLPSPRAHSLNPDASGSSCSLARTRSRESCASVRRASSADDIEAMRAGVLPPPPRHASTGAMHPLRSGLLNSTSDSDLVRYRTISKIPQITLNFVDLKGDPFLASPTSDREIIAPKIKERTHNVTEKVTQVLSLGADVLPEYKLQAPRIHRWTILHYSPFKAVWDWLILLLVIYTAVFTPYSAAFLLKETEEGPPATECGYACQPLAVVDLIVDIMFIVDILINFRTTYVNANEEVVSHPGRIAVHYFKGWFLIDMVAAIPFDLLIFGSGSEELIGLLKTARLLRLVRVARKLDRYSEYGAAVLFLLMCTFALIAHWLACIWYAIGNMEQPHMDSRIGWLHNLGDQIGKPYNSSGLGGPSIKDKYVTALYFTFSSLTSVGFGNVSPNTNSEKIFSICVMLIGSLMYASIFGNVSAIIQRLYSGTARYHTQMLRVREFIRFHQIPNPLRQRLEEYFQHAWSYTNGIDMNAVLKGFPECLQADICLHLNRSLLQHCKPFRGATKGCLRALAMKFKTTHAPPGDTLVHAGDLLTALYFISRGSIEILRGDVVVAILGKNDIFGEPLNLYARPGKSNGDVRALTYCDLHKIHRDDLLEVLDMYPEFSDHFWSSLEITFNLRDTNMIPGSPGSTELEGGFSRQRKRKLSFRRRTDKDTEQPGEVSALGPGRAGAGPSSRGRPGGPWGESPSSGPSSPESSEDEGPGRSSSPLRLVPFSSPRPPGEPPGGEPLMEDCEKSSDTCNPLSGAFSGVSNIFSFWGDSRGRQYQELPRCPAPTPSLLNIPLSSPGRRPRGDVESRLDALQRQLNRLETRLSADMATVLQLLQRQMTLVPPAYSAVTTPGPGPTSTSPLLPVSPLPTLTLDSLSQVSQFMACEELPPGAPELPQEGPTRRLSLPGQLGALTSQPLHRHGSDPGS
Measured inhibition at 5 min, 3 µM values are reported for all entries that follow.
Note: unit % is implicit; provide only the numeric part.

Examples with their reported inhibition at 5 min, 3 µM follow.
smi=CC1(C)C(=O)N(c2ccc(N3CC(CN[C@H]4CC[C@H](C(=O)O)CC4)C3)cc2)c2cc(Cl)ccc2-c2cc(Cl)cnc21 readouttype="inhibition at 5 min, 3 µM" measuredvalue=0
smi=COC1(CN[C@H]2CC[C@H](C(=O)O)CC2)CN(c2ccc(N3C(=O)C(C)(C)c4ncc(Cl)cc4-c4ccc(Cl)cc43)cc2)C1 readouttype="inhibition at 5 min, 3 µM" measuredvalue=0

Please look at the following compound next.
Q: What value of measured inhibition at 5 min, 3 µM is listed for CC1(C)C(=O)N(c2ccc(N3CC(F)(CN[C@H]4CC[C@H](C(=O)O)CC4)C3)cc2)c2cc(Cl)ccc2-c2cc(Cl)cnc21 ?
Result: 2

====

test: physchem; conditions: JP1 fluid, pH 1.2
readoutType: solubility at 4 h (µg/mL)

1 = CC1(C)C(=O)N(c2ccc(N3CC(CNC4CCOCC4)(C(=O)O)C3)cc2)c2cc(Cl)ccc2-c2cc(Cl)cnc21
2 = CC1(C)C(=O)N(c2ccc(N3CC(O)(CNC4CCOCC4)C3)cc2)c2cc(Cl)ccc2-c2cc(Cl)cnc21
3 = COC(=O)C1(CNC2CCOCC2)CN(c2ccc(N3C(=O)C(C)(C)c4ncc(Cl)cc4-c4ccc(Cl)cc43)cc2)C1
4 = COC1(CN(C)C2CCOCC2)CN(c2ccc(N3C(=O)C(C)(C)c4ncc(Cl)cc4-c4ccc(Cl)cc43)cc2)C1
Q: Hey, quick one: sort these by solubility at 4 h, largest value first please. Please write the labels in the order that was asked for.
Result: 2, 4, 3, 1

====

assay: physchem; conditions: JP2 fluid, pH 6.8
readoutType: solubility at 4 h (µg/mL)

smi=COC(=O)C1(CNC2CCOCC2)CN(c2ccc(N3C(=O)C(C)(C)c4ncc(Cl)cc4-c4ccc(Cl)cc43)cc2)C1 readouttype="solubility at 4 h" unitabbrev=µg/mL measuredvalue=0.7
smi=CC1(C)C(=O)N(c2ccc(N3CC(O)(CNC4CCOCC4)C3)cc2)c2cc(Cl)ccc2-c2cc(Cl)cnc21 readouttype="solubility at 4 h" unitabbrev=µg/mL measuredvalue=88

a = CC1(C)C(=O)N(c2ccc(N3CC(CNC4CCOCC4)(C(=O)O)C3)cc2)c2cc(Cl)ccc2-c2cc(Cl)cnc21
b = COC1(CN(C)C2CCOCC2)CN(c2ccc(N3C(=O)C(C)(C)c4ncc(Cl)cc4-c4ccc(Cl)cc43)cc2)C1
Q: Min solubility at 4 h? a | b Field: selected label. Fill in the label of the entry you choose.
Result: b
(b: 2.5 µg/mL, a: 97 µg/mL)

====

target: CYP2C19 (Homo sapiens); assay: Inhibition of CYP2C19 (unknown origin) at 10 uM relative to control; type: ADME
Sequence (P33261 whole entry): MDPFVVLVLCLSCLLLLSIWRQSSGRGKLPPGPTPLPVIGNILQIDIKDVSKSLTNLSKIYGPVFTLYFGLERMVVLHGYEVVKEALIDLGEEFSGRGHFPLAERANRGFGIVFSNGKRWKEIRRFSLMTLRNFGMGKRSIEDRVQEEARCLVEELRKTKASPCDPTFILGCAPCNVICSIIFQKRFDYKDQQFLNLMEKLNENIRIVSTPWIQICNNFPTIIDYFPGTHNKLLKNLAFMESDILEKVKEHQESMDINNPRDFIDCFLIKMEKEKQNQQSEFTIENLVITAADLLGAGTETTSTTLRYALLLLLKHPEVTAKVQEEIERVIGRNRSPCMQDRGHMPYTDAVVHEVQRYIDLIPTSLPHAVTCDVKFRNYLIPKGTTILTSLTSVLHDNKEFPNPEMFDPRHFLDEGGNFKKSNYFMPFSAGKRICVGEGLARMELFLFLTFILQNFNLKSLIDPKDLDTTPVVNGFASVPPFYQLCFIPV
readoutType: inhibition at 10 µM

Q: What value of measured inhibition at 10 µM is listed for CC1(C)C(=O)N(c2ccc(N3CC(F)(CN[C@H]4CC[C@H](C(=O)O)CC4)C3)cc2)c2cc(Cl)ccc2-c2cc(Cl)cnc21 ?
Result: < 50%

====

target: CYP2D6 (Homo sapiens); test: Inhibition of CYP2D6 (unknown origin) at 10 uM relative to control; type: ADME
Sequence (P10635 whole entry): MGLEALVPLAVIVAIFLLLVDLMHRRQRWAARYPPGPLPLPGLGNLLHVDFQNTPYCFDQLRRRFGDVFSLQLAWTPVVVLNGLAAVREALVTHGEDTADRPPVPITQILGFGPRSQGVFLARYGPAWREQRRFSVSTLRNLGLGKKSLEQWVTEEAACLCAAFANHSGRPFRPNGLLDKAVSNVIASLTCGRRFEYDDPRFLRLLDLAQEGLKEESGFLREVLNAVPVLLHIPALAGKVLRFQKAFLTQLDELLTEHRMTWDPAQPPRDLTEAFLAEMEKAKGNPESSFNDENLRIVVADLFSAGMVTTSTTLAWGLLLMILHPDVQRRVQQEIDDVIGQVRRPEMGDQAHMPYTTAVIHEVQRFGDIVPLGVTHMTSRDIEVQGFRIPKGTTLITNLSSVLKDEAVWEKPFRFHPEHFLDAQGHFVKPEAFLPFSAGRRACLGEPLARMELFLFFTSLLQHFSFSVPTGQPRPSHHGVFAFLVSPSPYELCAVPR
readoutType: inhibition at 10 µM

Q: What value of measured inhibition at 10 µM is listed for CC1(C)C(=O)N(c2ccc(N3CC(F)(CN[C@H]4CC[C@H](C(=O)O)CC4)C3)cc2)c2cc(Cl)ccc2-c2cc(Cl)cnc21 ?
Result: < 50%

====

biological target: Parathyroid hormone/parathyroid hormone-related peptide receptor (Homo sapiens); experiment: Antagonist activity against human PTHR1 expressed in CHO-K1 cells assessed as reduction in PTH induced cAMP level incubated for 30 mins in presence of IBMX by cAMP assay
readoutType: IC50 (nM)

smi=CC1(C)C(=O)N(c2ccc(N3CC(O)(CNC4CCOCC4)C3)cc2)c2cc(Cl)ccc2-c2cc(Cl)cnc21 measuredvalue=840

I = CC1(C)C(=O)N(c2ccc(N3CC(F)(CNC45CCC(C(=O)O)(CC4)CC5)C3)cc2)c2cc(Cl)ccc2-c2cc(Cl)cnc21
II = COC1(CN(C)C2CCOCC2)CN(c2ccc(N3C(=O)C(C)(C)c4ncc(Cl)cc4-c4ccc(Cl)cc43)cc2)C1
Q: Min IC50? I | II Field: selected label. Fill in the label of the entry you choose.
Result: I
(I: 90 nM, II: 780 nM)
